target: T1, Recombinant purified human PD-1 protein, residues Leu25-Thr168, with a C-terminal 6-His tag (Homo sapiens, UniProt Q15116); assay: SPR; Biacore 8K, CMD-P chip (flat); mAb captured on amine-coupled goat anti-human IgG Fc, PD-1-His monomer as analyte (100 nM top, 3-fold dilutions), 1200 s dissociation; 25 C, HBS-EP+ pH 7.4; 1:1 Langmuir fit, apparent constants; settings: both partners purified
T1 construct: programmed cell death protein 1 (PD-1), human, residues Leu25-Thr168; also called programmed cell death protein 1; PD-1-His monomer; source: bought: R&D Systems (catalog# 8986-PD, lot# DDJM0417041)
T1 sequence (Q15116 25-168): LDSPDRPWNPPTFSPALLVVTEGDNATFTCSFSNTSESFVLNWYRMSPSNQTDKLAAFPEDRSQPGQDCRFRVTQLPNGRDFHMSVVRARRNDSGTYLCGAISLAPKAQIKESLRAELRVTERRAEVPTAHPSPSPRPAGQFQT

binder	units-symbol	koff
mAb04 (antibody, V domains shown, IgG4; also called analog of retifanlimab; retifan; source: HEK293 suspension cells, cotransfected, purified (Protein A)) VH: QVQLVQSGAEVKKPGASVKVSCKASGYSFTSYWMNWVRQAPGQGLEWIGVIHPSDSETWLDQKFKDRVTITVDKSTSTAYMELSSLRSEDTAVYYCAREHYGTSPFAYWGQGTLVTVSS VL: EIVLTQSPATLSLSPGERATLSCRASESVDNYGMSFMNWFQQKPGQPPKLLIHAASNQGSGVPSRFSGSGSGTDFTLTISSLEPEDFAVYFCQQSKEVPYTFGGGTKVEIK	s⁻¹	0.000235
